Values were extracted from paper PMC5011961.

# Tested on: Marc-145 cells
# Assay Method Text: Cytotoxicity assay (MTT)
# Condition Notes: Marc-145, 72 h, MTT, mean ± SD, n = 4
Label true (1) when TC50 is strictly below 80 µg/mL; otherwise label false (0).

Cc1c(C(C)O)nc2ccccc2[n+]1[O-] (centres unmarked) ... false (0)
N#CCC(=O)N/N=C/c1cnc2ccccc2[n+]1[O-] ... false (0)
CC(=O)c1c(C)[n+]([O-])c2ccccc2[n+]1[O-] ... true (1)

Inquiry: Hello, is TC50 of the following molecule strictly smaller than 80 µg/mL? N#CCC(=O)N/N=C/c1cnc2ccccc2n1
Reply text: true (1)

Inquiry: Item Cc1c(C(C)O)[n+]([O-])c2ccccc2[n+]1[O-] (centres unmarked) : TC50 beneath 80 µg/mL, strictly?
Reply text: false (0)

Inquiry: Given N#CCC(=O)N/N=C/c1c[n+]([O-])c2ccccc2n1 , is recorded TC50 strictly lower than 80 µg/mL?
Reply text: true (1)

Inquiry: Given NC(=O)c1ncn([C@@H]2O[C@H](CO)[C@@H](O)[C@H]2O)n1 , is recorded TC50 strictly lower than 80 µg/mL?
Reply text: true (1)

Inquiry: Is 80 µg/mL strictly greater than the molecule's reported TC50? molecule: N#CCC(=O)N/N=C/c1c[n+]([O-])c2ccccc2[n+]1[O-]
Reply text: true (1)

====

# System: Candida tropicalis
# Assay Method Text: Antifungal assay, macrobroth 2-fold serial dilution MIC
# Condition Notes: Candida tropicalis, C. tropicalis 7349, deep fungi
Here, each record is paired with measured MIC data.

// below: answered compounds
Cc1c(C(=O)/C=C/c2ccccc2)[n+]([O-])c2ccccc2[n+]1[O-] [QCT, quinocetone] ... > 64 µg/mL
CC(=O)c1c(C)[n+]([O-])c2ccccc2[n+]1[O-] [MEQ, mequindox] ... > 64 µg/mL
N#CCC(=O)N/N=C/c1c[n+]([O-])c2ccccc2[n+]1[O-] [CYA, cyadox] ... 32 µg/mL

Here's the next entry for you.
Inquiry: Hello, please tell me recorded MIC for this one: C[C@@H]1[C@H](O)[C@@H](C)/C=C/C=C/C=C/C=C/C=C/C=C/C=C/[C@H](O[C@@H]2O[C@H](C)[C@@H](O)[C@H](N)[C@@H]2O)C[C@@H]2O[C@](O)(C[C@@H](O)C[C@@H](O)[C@H](O)CC[C@@H](O)C[C@@H](O)CC(=O)O[C@H]1C)C[C@H](O)[C@H]2C(=O)O [AMB, amphotericin B]
Reply text: 2 µg/mL

====

Observed MIC, system Cryptococcus neoformans.
Write the number in µg/mL without appending the unit.

For orientation, consider the following solved cases.
N#CCC(=O)N/N=C/c1c[n+]([O-])c2ccccc2[n+]1[O-] ... 16
C[C@@H]1[C@H](O)[C@@H](C)/C=C/C=C/C=C/C=C/C=C/C=C/C=C/[C@H](O[C@@H]2O[C@H](C)[C@@H](O)[C@H](N)[C@@H]2O)C[C@@H]2O[C@](O)(C[C@@H](O)C[C@@H](O)[C@H](O)CC[C@@H](O)C[C@@H](O)CC(=O)O[C@H]1C)C[C@H](O)[C@H]2C(=O)O ... 0.5
CC(=O)c1c(C)[n+]([O-])c2ccccc2[n+]1[O-] ... 32
Cc1c(C(=O)/C=C/c2ccccc2)[n+]([O-])c2ccccc2[n+]1[O-] ... 64

Please look at the following compound next.
Inquiry: Lab note: Cryptococcus neoformans assay, enter MIC for CC(=O)N1CCN(c2ccc(OCC3COC(Cn4ccnc4)(c4ccc(Cl)cc4Cl)O3)cc2)CC1 (centres unmarked) here
Reply text: 0.25

====

# System: IBDV
# Assay Method Text: Antiviral assay (CPE/MTT; adsorption inhibition, infection inhibition, virucidal)
# Format: cell-based, infectious bursal disease virus
# Design: key: “--” represent not detected owing to the low inhibition ratio
# Condition Notes: IBDV, Prevention, mean±SD of four experiments
Parameter: IC50

Here are 4 compounds together with their reported answers.
Cc1c(C(C)O)[n+]([O-])c2ccccc2[n+]1[O-] (centres unmarked) [M6, carbonyl reduction mequindox] ... --
N#CCC(=O)N/N=C/c1c[n+]([O-])c2ccccc2[n+]1[O-] [CYA, cyadox] ... --
Cc1c(C(C)O)nc2ccccc2[n+]1[O-] (centres unmarked) [M4, carbonyl reduction N1-deoxy mequindox] ... --
Cc1nc2ccccc2nc1C(C)O (centres unmarked) [M5, carbonyl reduction bi-deoxy mequindox] ... --

We now examine a further compound.
Inquiry: Let me know recorded IC50 for Cc1c(C(=O)/C=C/c2ccccc2)[n+]([O-])c2ccccc2[n+]1[O-] [QCT, quinocetone] , thanks.
Reply text: --

====

Recorded TC50 by entry
# System: DF-1 cells
# Assay Method Text: Cytotoxicity assay (MTT)
# Condition Notes: DF-1, 72 h, MTT, mean ± SD, n = 4
Remember to put the unit after the number in your answer.

N#CCC(=O)N/N=C/c1c[n+]([O-])c2ccccc2[n+]1[O-] ... 17.26 ± 1.27 µg/mL

Inquiry: Answer with TC50 of N#CCC(=O)N/N=C/c1c[n+]([O-])c2ccccc2n1 measured for DF-1 cells.
Reply text: 49.2 ± 1.93 µg/mL

Inquiry: Recall the reported TC50 of N#CCC(=O)N/N=C/c1cnc2ccccc2n1 on DF-1 cells and write it down.
Reply text: 32.97 ± 2.35 µg/mL

Inquiry: Given Cc1c(C(=O)/C=C/c2ccccc2)[n+]([O-])c2ccccc2[n+]1[O-] , report its TC50 on DF-1 cells.
Reply text: 9.89 ± 1.08 µg/mL

Inquiry: Answer with TC50 of N#CCC(=O)N/N=C/c1cnc2ccccc2[n+]1[O-] measured for DF-1 cells.
Reply text: 35.48 ± 2.87 µg/mL

Inquiry: Output reported TC50 of the molecule Cc1nc2ccccc2nc1C(C)O (centres unmarked) on DF-1 cells.
Reply text: 38.2 ± 2.09 µg/mL

Inquiry: Return reported TC50 for target or system DF-1 cells, item Cc1c(C(C)O)[n+]([O-])c2ccccc2[n+]1[O-] (centres unmarked) .
Reply text: 41.26 ± 1.27 µg/mL

Inquiry: # return TC50 for Cc1c(C(C)O)nc2ccccc2[n+]1[O-] (centres unmarked) , test system: DF-1 cells
Reply text: 37.75 ± 2.68 µg/mL

====

# Test system: DF-1 cells
# Assay Method Text: Cytotoxicity assay (MTT)
# Condition Notes: DF-1, 72 h, MTT, mean ± SD, n = 4
Reported TC50 values are given for each entry in this list.
State just the number; it will be interpreted in µg/mL.

NC(=O)c1ncn([C@@H]2O[C@H](CO)[C@@H](O)[C@H]2O)n1 ... 67.42
CC(=O)c1c(C)[n+]([O-])c2ccccc2[n+]1[O-] ... 40.01

Inquiry: Tell me measured TC50 for CC(=O)c1nc2ccccc2nc1C please.
Reply text: 54.8

====

# Tested on: M. tuberculosis H37Rv ATCC 27294
# Assay Method Text: Microdilution alamar blue assay (MABA)
# Format: cell-based, Mycobacterium tuberculosis
# Condition Notes: Mycobacterium tuberculosis, read-out: MIC
Reported MIC by item:
Report the figure in µg/mL without appending any unit label.

Below: 3 compounds and their reported MIC.
CC(=O)c1c(C)[n+]([O-])c2ccccc2[n+]1[O-] ... 4
NC(=O)c1cnccn1 [Pyrazinamide, pyrazinamide] ... 0.8
Cc1c(C(=O)/C=C/c2ccccc2)[n+]([O-])c2ccccc2[n+]1[O-] ... 4

Turning to the following compound.
Inquiry: Determine from records and report MIC for NNC(=O)c1ccncc1
Reply text: 0.025

====

# Test system: Marc-145 cells
# Assay Method Text: Cytotoxicity assay (MTT)
# Condition Notes: Marc-145, 72 h, MTT, mean ± SD, n = 4
Listed here are compounds together with their documented TC50.
Could you give me the number in µg/mL? Just the number is fine.

Previously resolved entries follow.
Cc1nc2ccccc2nc1C(C)O (stereo not drawn) [M5, carbonyl reduction bi-deoxy mequindox] ... 89.66
Cc1c(C(=O)/C=C/c2ccccc2)[n+]([O-])c2ccccc2[n+]1[O-] [QCT, quinocetone] ... 8.90

Could you now look at the following compound, please?
Inquiry: Give the value of TC50 reported for the following: CC(=O)c1nc2ccccc2nc1C [M1, bi-deoxy Mequindox]
Reply text: 70.77

====

# Test system: PK-15 cells
# Assay Method Text: Cytotoxicity assay (MTT)
# Condition Notes: PK-15, 72 h, MTT, mean ± SD, n = 4
Decide using TC50 alone. Strictly below 40 µg/mL: 1 (yes). Equal to or above 40 µg/mL: 0 (no).

// below: answered compounds
N#CCC(=O)N/N=C/c1c[n+]([O-])c2ccccc2[n+]1[O-] ... 1 (yes)
CC(=O)c1c(C)[n+]([O-])c2ccccc2[n+]1[O-] ... 1 (yes)
Cc1c(C(=O)/C=C/c2ccccc2)[n+]([O-])c2ccccc2[n+]1[O-] ... 1 (yes)
N#CCC(=O)N/N=C/c1c[n+]([O-])c2ccccc2n1 ... 1 (yes)
N#CCC(=O)N/N=C/c1cnc2ccccc2[n+]1[O-] ... 0 (no)
Cc1c(C(C)O)[n+]([O-])c2ccccc2[n+]1[O-] (stereo not shown) ... 0 (no)
N#CCC(=O)N/N=C/c1cnc2ccccc2n1 ... 1 (yes)

Now for another entry.
Inquiry: Check if TC50 falls below 40 µg/mL for CC(=O)c1nc2ccccc2nc1C .
Reply text: 0 (no)
